Tested on: MS2 coat protein
Test: apparent KD of MS2 coat protein; designed switch direction (-1 OFF switch, 1 ON switch): 1; higher = weaker reporter binding
Details: input ligand: FMN 200 uM
Exercise: state measured apparent KD of MS2 coat protein for each of the sequences provided.
In your response, put the unit directly after the numeric value.

[
  {
    "sequence input": "AGCCGAGACACAGGAUAUAGAUAUCUACAUGAGGAUCACCCAUGUAGCAACACGUGGUAGUGAUACUAGAAGGGUGCUCGGCGC [Omei SS(NG)2 Cv9] (Eterna round: R96, puzzle: Same State NG 2)",
    "apparent KD of MS2 coat protein": "20.2 nM"
  },
  {
    "sequence input": "AGAGGAGGAGCAGGAUAUGCGAAGAAGAACGAGGUAGAAGGGCUCAUGCGAUGACAUGAGGAUCACCCAUGUACCGCGCGAGGA [AK SSNG1-V2-8.2] (Eterna round: R96, puzzle: Same State NG 1)",
    "apparent KD of MS2 coat protein": "207 nM"
  },
  {
    "sequence input": "GCGAGCGUACUUGCUACAUGAGGAUCACCCAUGUUCGUUGGACAGGAUAUGGUACCGUUUCGGUACCAGAAGGGUUCAUCAUGA [JL SSNG3 3.76] (Eterna round: R96, puzzle: Same State NG 3)",
    "apparent KD of MS2 coat protein": "75.7 nM"
  },
  {
    "sequence input": "UGCUACGGAGACAUGAGGAUCACCCAUGUCGCUGCUUAAGGGCAGGAUAUGAAAGGGAAUCCCAAUCAGAAGGGCCGCAGCCAC [Isanxeanor] (Eterna round: R96, puzzle: Same State NG 3)",
    "apparent KD of MS2 coat protein": "35.3 nM"
  }
]

Below: the item to evaluate.
*Q* Look up and state reported apparent KD of MS2 coat protein for CGUAGGAUAUGCAGAGGAUCACCCUGUAGAAGGACGAUUACACAGGAUAUGCAGAGGAUCACCCUGUAGAAGGGUGACUAAUCU [pwkr ssNG3 DX 2xF5 +2xFMN.3] (Eterna round: R96, puzzle: Same State NG 3)
*A* 25.8 nM

----------
Test system: MS2 coat protein
Assay: apparent KD of MS2 coat protein; designed switch direction (-1 OFF switch, 1 ON switch): -1; higher = weaker reporter binding
Settings: Eterna round: R95; input ligand: none
Class membership depends on apparent KD of MS2 coat protein alone; the intervals are bottom range = under 30 nM, center range = from 30 nM up to 70 nM, top range = 70 nM and over

Answered examples (2):
[
  {
    "sequence input": "GAGGAACAUGAGGAUCACCCAUGUAAGGAUAUGCAAAGAGAGAAAGAAGAAGGAGAAAGCAGAAGGUACAAGGA [JR_Exclu1_Sub073] (puzzle: Exclusion 1)",
    "system": "MS2 coat protein",
    "group label": "center range"
  },
  {
    "sequence input": "GGUUGGCGAGGAUAUACAUGAGGAUCACCCAUGUGAGAGAAAAAAGUCAGGAAGAAAAGUAGAAGGCGCUGACG [salish99_ex3_r3_028] (puzzle: Exclusion 3)",
    "system": "MS2 coat protein",
    "group label": "bottom range"
  }
]

*Q* Hi, small favor: classify GGGAAGUGAGGAUAUAUGAGAGAGGCUGGACCGGAUGAGAAGUAGAAGGCACAUGAGGAUCACCCAUGUAGGGA [JR_Exclu4_Sub026] (puzzle: Exclusion 4) by its apparent KD of MS2 coat protein when you get a moment.
*A* top range

*Q* Hi, small favor: classify AAAAUGUCAGGAUAUGUGAAAGAAAAGAAAAGAAAAGAAAAACAGAAGGGACAUGAGGAUCACCCAUGUAAGAA [Exclusion 4 #3] (puzzle: Exclusion 4) by its apparent KD of MS2 coat protein when you get a moment.
*A* bottom range

*Q* Hi, small favor: classify GGAAAGCAAGGAUAUACAAGUAAACGACGGAAAGUAGAGAGACAUGAGGAUCACCCAUGUAGAAGGUGCGAGAG [JR_Exclu2_Sub035] (puzzle: Exclusion 2) by its apparent KD of MS2 coat protein when you get a moment.
*A* bottom range

*Q* Hi, small favor: classify GGUUGGCGAGGAUAUACAUGAGGAUCACCCAUGUGAGAAAGAAAAGUGAGGAAGAAAAGUAGAAGGCGCUGACG [Mat - Exclusion 3 - Mod of Salish D2] (puzzle: Exclusion 3) by its apparent KD of MS2 coat protein when you get a moment.
*A* top range

----------
Exercise: state measured apparent KD of MS2 coat protein for each of the sequences provided.
Tested on: MS2 coat protein
Assay: apparent KD of MS2 coat protein; designed switch direction (-1 OFF switch, 1 ON switch): 1; higher = weaker reporter binding
Details: input ligand: none
In your response, put the unit directly after the numeric value.

As a guide, the following entries are already answered.
[
  {
    "sequence input": "UAAUGUUUGCGAGGAUAUCGUUUAUUGAAGUUACGAGAAGGCGCUCUUCUUACAUGAGGAUCACCCAUGUCUGUUUUGCAUGAU [JR_SSNG1_Sub069] (Eterna round: R96, puzzle: Same State NG 1)",
    "system": "MS2 coat protein",
    "apparent KD of MS2 coat protein": "81.5 nM"
  },
  {
    "sequence input": "GUGGUCAGACAUGAGGAUCACCCAUGUGGAAUAAAUAAGGGAGAGGAUAUAAAAUAUAGGAUAUAUUAGAAGGCUCGGUUGGUG (Eterna round: R96, puzzle: Same State NG 3)",
    "system": "MS2 coat protein",
    "apparent KD of MS2 coat protein": "85.4 nM"
  },
  {
    "sequence input": "AGCUAAAACGAAGGAUAUACAAACAUGAGGAUCACCCAUGUAUACAUGGUUUGUUGUGACUACAUGUAGAAGGUCGUACUAACA [SameState NG2 #17] (Eterna round: R96, puzzle: Same State NG 2)",
    "system": "MS2 coat protein",
    "apparent KD of MS2 coat protein": "500 nM"
  },
  {
    "sequence input": "UCGGGCGUACUUGCUGACAUGAGGAUCACCCAUGUGAUUGGGAAGGAUAUGGUUCCGUUUCGGUUCCAGAAGGUCCUGGGUGCU [salish99_SSNG3_r04_313] (Eterna round: R96, puzzle: Same State NG 3)",
    "system": "MS2 coat protein",
    "apparent KD of MS2 coat protein": "370 nM"
  }
]

Below: the item to evaluate.
*Q* Look up and state reported apparent KD of MS2 coat protein for GAGGAACAGGCCAACAUGAGGAUCACCCAUGUCCUCGCACUUCAGGAUAUCUGGAGGAAGAAGAAAGAGAAGGGAAGGUGAAGC [AK SSNG3-V2-34.2] (Eterna round: R96, puzzle: Same State NG 3)
*A* 19.3 nM

----------
Exercise: state measured apparent KD of K4 kissing-loop reporter for each of the sequences provided.
Test system: K4 kissing-loop RNA reporter;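 note: bound reporter read as fluorescence of individual clusters on recovered sequencing chips by microscopy, with normalized cluster intensities fitted with a binding model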
Test: apparent KD of K4 kissing-loop reporter; higher = weaker reporter binding
Details: Eterna round: R107; input ligand: arginine 13.2 mM
Answers are plain numbers, in nM.

Each sequence below has a recorded value; state its apparent KD of K4 kissing-loop reporter.
1. GACUACCGGGCGGCCGCCACUGGGCUCCGAGUGAUGUUCGGAAAGACUCAUACACUGCUGUCAGACAGGACCGGGCCAAGGCGCA [theeternabot_sameState_KL_Trp_B_5]
2. GAGAUAGCGACGGCCGCCACUAGUGAUGUUAGUGCGGGUAGAUAGAUACUUGAACAGAAAUGACGUAGGACCGGGUCAGAUAGAG [#02 K4 Tryptophan B Exclusion]
3. AGUAUUGAGUCGGCCGCCACUGGUUUAAUGAGUGUCAAUUCUGGAUCAAAGUGAUGUUUUGGAGCUAGGACCGGGACCAUUGUUA [#07 K4 Tryptophan B Exclusion]

*A*
1: 170; 2: 94.5; 3: 360

----------
Tested on: MS2 coat protein
Experiment: apparent KD of MS2 coat protein; designed switch direction (-1 OFF switch, 1 ON switch): -1; higher = weaker reporter binding
Settings: input ligand: none
Please use rule met whenever apparent KD of MS2 coat protein is not below 40 nM, and rule not met whenever it is.

Answered examples (2):
[
  {
    "sequence input": "CCAAAGUCAGGAUAUACAUGAGGAUCACCCAUGUAAAAUUUUAAUUUAAUUUGAAGGUGUAGAAGGGACAAACC [Ex3 #32] (Eterna round: R97, puzzle: Exclusion 3)",
    "group label": "rule not met"
  },
  {
    "sequence input": "GGAUAAAAGUCAGGAUAUACGUAUCACUAACGAGUAGAAGGGACACAUGAGGAUCACCCAUGUGAGUUCUCAAUAAGAAACACG [Prohibition 62 - Jieux - Exclusion NG 1] (Eterna round: R96, puzzle: Exclusion NG 1)",
    "group label": "rule not met"
  }
]

*Q* Is apparent KD of MS2 coat protein at least 40 nM? Consider ACAAUUAUGACAGGAUAUAGUUUUUGUUGGUCACUAGAAGGGUCUAUGCACAUGAGGAUCACCCAUGUUCUUUUUAUAUGCGAU [JR_ExcNG1_Sub018] (Eterna round: R96, puzzle: Exclusion NG 1)
*A* rule met
